Entries annotated with measured AIRE transcriptional activation functional score
B1: library; numbered along this chain (parent)
chain: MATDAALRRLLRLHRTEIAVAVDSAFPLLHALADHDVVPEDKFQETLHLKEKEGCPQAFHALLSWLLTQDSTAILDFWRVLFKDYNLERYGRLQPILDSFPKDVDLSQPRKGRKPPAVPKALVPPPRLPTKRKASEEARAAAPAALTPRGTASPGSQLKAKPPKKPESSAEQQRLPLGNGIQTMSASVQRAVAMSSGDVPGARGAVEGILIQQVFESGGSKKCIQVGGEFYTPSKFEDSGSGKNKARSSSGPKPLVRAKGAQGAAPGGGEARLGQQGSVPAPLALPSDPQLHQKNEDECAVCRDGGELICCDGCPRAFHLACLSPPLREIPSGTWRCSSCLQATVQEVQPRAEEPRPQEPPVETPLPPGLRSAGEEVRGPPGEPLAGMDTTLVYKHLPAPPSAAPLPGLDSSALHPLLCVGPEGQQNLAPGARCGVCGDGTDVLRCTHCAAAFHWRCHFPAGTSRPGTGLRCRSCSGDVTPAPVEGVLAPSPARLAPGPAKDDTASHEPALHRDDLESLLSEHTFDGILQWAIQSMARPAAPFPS

# Variants of: B1
# experiment-notes: AIRE transcriptional activation functional score (insulin promoter-GFP; nonsense median 0, synonymous median 1) (normalised score); higher = higher AIRE activity (more reporter activation)
# recorded-conditions: with insulin promoter-GFP reporter in HEK293
Provide a numeric answer; units are not to be included.

Known results for variants:
- D41V: 0.0716
- R303A: 0.349
- P381C: 0.894
- Q426D: 0.796
- R316Y: 1.36

# get_value(readout='AIRE transcriptional activation functional score', item= T183R )
0.948

Now the same for A429S
1.09

Now the same for L444W
0.452

Now the same for T463V
1.49

Now the same for R513K
0.902

Now the same for R8A
-0.421

Now the same for G498H
1.42

Now the same for L370T
1.03

Now the same for C337Y
1.07

Now the same for P163K
1.29

Now the same for R113T
0.935
